// values below are reported IC50
Biological target: human TLR7 (Homo sapiens, UniProt Q9NYK1)
Construct: host or cells: HEK-Blue cells
Sequence (Q9NYK1 27-1049): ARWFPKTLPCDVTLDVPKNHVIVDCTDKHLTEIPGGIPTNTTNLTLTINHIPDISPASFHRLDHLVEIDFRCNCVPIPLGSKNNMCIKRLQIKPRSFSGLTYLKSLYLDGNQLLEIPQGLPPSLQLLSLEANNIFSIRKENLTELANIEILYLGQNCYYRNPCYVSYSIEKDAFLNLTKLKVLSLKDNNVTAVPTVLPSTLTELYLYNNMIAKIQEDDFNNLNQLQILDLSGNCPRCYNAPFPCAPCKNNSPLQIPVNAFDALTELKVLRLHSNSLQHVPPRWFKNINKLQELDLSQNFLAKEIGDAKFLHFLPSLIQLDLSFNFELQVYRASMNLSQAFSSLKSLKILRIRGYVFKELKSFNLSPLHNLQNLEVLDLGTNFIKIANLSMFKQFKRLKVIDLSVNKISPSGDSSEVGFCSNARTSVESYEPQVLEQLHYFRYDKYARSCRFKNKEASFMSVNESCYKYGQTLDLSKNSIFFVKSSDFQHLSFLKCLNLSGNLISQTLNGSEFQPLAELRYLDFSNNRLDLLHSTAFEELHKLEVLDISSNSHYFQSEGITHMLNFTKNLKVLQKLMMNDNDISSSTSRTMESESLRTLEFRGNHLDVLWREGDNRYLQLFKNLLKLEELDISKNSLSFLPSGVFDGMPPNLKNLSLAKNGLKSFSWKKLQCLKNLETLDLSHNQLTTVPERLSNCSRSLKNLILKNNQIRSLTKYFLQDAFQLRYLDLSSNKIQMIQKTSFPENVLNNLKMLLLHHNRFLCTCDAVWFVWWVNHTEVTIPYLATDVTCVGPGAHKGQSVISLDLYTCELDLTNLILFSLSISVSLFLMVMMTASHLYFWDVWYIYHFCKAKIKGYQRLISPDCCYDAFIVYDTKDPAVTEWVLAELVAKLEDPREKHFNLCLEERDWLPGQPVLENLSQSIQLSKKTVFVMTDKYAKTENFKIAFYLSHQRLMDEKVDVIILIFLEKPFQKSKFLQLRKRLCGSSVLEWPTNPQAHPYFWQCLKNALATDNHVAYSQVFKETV
Test: TLR7 inhibition reporter assay (HEK-Blue cells, SEAP reporter, gardiquimod stimulation)
Type: cell-based
Conditions: HEK-Blue cells overexpressing human TLR7, SEAP reporter, gardiquimod 7.5 μM; read-out: TLR7 IC50
// units = nM; emit number, no label

Check out these entries, answers already filled in.
Item Cc1c(-c2[nH]c3sc(CN4CC5(COC5)C4)nc3c2C(C)C)cn2ncnc2c1C [Example 408] was tested on human TLR7 (Homo sapiens, UniProt Q9NYK1); the reported IC50 is 47.4

Item Cc1cc(-c2[nH]c3sc(C4CCN(CC5(C)COC5)CC4)nc3c2C(C)C)cn2ncnc12 [Example 23] was tested on human TLR7 (Homo sapiens, UniProt Q9NYK1); the reported IC50 is 1.27

Item COc1cc(-c2[nH]c3sc(C4CCC(N5CC6(C5)CS(=O)(=O)C6)CC4)nc3c2C(C)C)cn2ncnc12 (single isomer, unassigned) [Example 96] was tested on human TLR7 (Homo sapiens, UniProt Q9NYK1); the reported IC50 is 1.53

Item Cc1c(-c2[nH]c3sc(CN4CC5(CNC5)C4)nc3c2C(C)C)cn2ncnc2c1C [Example 409] was tested on human TLR7 (Homo sapiens, UniProt Q9NYK1); the reported IC50 is 48.2

Item Cc1c(-c2[nH]c3sc(C4CCC(N5CC(O)C5)CC4)nc3c2C(C)C)cn(C)c(=O)c1C (single isomer, unassigned) [Example 264] was tested on human TLR7 (Homo sapiens, UniProt Q9NYK1); the reported IC50 is 26.8

More entries:
Item CCN(C)C1CCC(c2nc3c(C(C)C)c(-c4cn5ncnc5c(C)c4C)[nH]c3s2)CC1 (single isomer, unassigned) [Example 191] was tested on human TLR7 (Homo sapiens, UniProt Q9NYK1); the reported IC50 is 1.5

Item Cc1c(-c2[nH]c3sc(C4CCC(N5CC6(COC6)C5)CC4)nc3c2C(C)C)cn2ncnc2c1C (single isomer, unassigned) [Example 192] was tested on human TLR7 (Homo sapiens, UniProt Q9NYK1); the reported IC50 is 1.67

Item CC(C)c1c(-c2cn(C)c3ncccc23)[nH]c2sc(C3CCC(NC4COC4)CC3)nc12 (single isomer, unassigned) [Example 179] was tested on human TLR7 (Homo sapiens, UniProt Q9NYK1); the reported IC50 is 9.72

Item Cc1cc2ncnn2cc1-c1[nH]c2sc(C3CCC(NCC(C)(C)O)CC3)nc2c1C(C)C (single isomer, unassigned) [Example 157] was tested on human TLR7 (Homo sapiens, UniProt Q9NYK1); the reported IC50 is 37.4

Item Cc1c(-c2[nH]c3sc(C4CCN(CC(N)=O)CC4)nc3c2C(C)C)cn2ncnc2c1C [Example 58] was tested on human TLR7 (Homo sapiens, UniProt Q9NYK1); the reported IC50 is 3.01

Item COc1cc(-c2[nH]c3sc(C4CCC(N5[C@@H]6CC[C@H]5COC6)CC4)nc3c2C(C)C)cn2ncnc12 (single isomer, unassigned) [Example 104] was tested on human TLR7 (Homo sapiens, UniProt Q9NYK1); the reported IC50 is 1.98

Item CCN(C)CC(=O)N[C@H]1CC[C@H](c2nc3c(C(C)C)c(-c4cc(OC)c5ncnn5c4)[nH]c3s2)CC1 [Example 128] was tested on human TLR7 (Homo sapiens, UniProt Q9NYK1); the reported IC50 is 1.21

Item COc1cc(-c2[nH]c3sc(C4CCC(N5CC(O)(C(F)(F)F)C5)CC4)nc3c2C(C)C)cn2ncnc12 (single isomer, unassigned) [Example 119] was tested on human TLR7 (Homo sapiens, UniProt Q9NYK1); the reported IC50 is 3.33
